Tested on: CP315
measurementProtocol: qHTS profiling for inhibitors of Plasmodium falciparum proliferation (AID 504749);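 further: 0% = DMSO vehicle and full inhibition = artemisinin control; nearly all actives have a fitted effect of over 60% in size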
measurementContext: P. falciparum in erythrocytes, SYBR Green DNA, 72 h; series mostly up to 28.7 µM
Results filed as inconclusive are left out. Activity calls are given as the source filed them. The call rests on the fitted dose curve; in most records, active means well fitted inhibition curve with a large enough effect; inconclusive means small, poorly fitted or top-dose-only effect; inactive means flat fitted curve, though single readings scatter.
Could you please pick one outcome from this set? active, inactive

CC[N+]1(C)CCCC(OC(=O)C(O)(c2ccccc2)c2ccccc2)C1 (stereo not drawn)    inactive
CC(C)NCC(O)c1ccccc1Cl (stereo not drawn)    inactive
NP(N)(=O)NC(=O)c1ccc(F)cc1    inactive
O=C1NCN(c2ccccc2)C12CCN(CC1COc3ccccc3O1)CC2 (stereo not drawn)    inactive
COc1ccccc1N1CCNCC1    inactive
C#CCOC(C(=O)OCCN(C)C)(c1ccccc1)c1ccccc1    inactive

For CC[C@@H](CO)NC(=O)[C@@H]1C=C2c3cccc4[nH]cc(c34)C[C@H]2N(C)C1 , what call appears in the results of this test?
inactive

====

measurementProtocol: qHTS assay for measurement of the activity of small molecule inhibitors on Zika virus induced Caspase-3 activity in human astrocytoma cells (AID 1224859);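 further: plate controls were ZIKV-infected untreated cells for no effect and uninfected cells for full effect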
measurementContext: SNB-19 ZIKV-induced caspase-3/7, luminescence, 6 h; series mostly up to 45.7 µM
Active and inactive are the calls of the source. Calls follow the shape of the dose curve; as a rule, active = well fitted inhibition curve with a large enough effect; inconclusive = small, poorly fitted or top-dose-only effect; inactive = no such curve, though single readings can be large or run the other way.
recordedMetric: outcome

Answered cases to consult:
C#CCN(C)[C@H](C)Cc1ccccc1    inactive
CN1CCN(C(=O)O[C@H]2c3nccnc3C(=O)N2c2ccc(Cl)cn2)CC1    inactive
N[C@@H](Cc1ccc(N(CCCl)CCCl)cc1)C(=O)O    inactive
CC(=O)Nc1cc([As](=O)(O)O)ccc1O    inactive
O=c1[nH]c2ccccc2n1C1CCN(CCCC(c2ccc(F)cc2)c2ccc(F)cc2)CC1    inactive

Please supply outcome for each of the following items, keeping them in order.
1. C=CCN1CC[C@]23c4c5ccc(O)c4O[C@H]2C(=O)CC[C@@]3(O)[C@H]1C5
2. Cc1cccc(C)c1NC(=O)CN1CCCC1=O
3. CCC(C(N)=O)N1CCCC1=O (stereo unspecified)
4. CC(=O)[C@H]1CC[C@H]2[C@@H]3CC[C@H]4C[C@H](O)CC[C@]4(C)[C@H]3C(=O)C[C@]12C
5. Cc1ccc(S(=O)(=O)N[C@@H](CCCCN)C(=O)CCl)cc1
6. Nc1ccncc1

["inactive", "inactive", "inactive", "inactive", "inactive", "inactive"]

====

Test system: Tov-21-G
measurementProtocol: Primary qHTS to identify gynecologic anti-cancer compounds using libraries of approved drugs and bioactive compounds (AID 1345084); further: nearly all actives have a fitted effect of over 55% in size
measurementContext: Gynecologic cancer cell panel viability, ATPlite luminescence, 48 h; series mostly up to 57.5 µM
Inconclusive results are not listed. Calls of active or inactive are those of the source. The call rests on the fitted dose curve; in most records, active means well fitted cell-killing curve with a large enough effect; inconclusive means small, poorly fitted or top-dose-only effect, or effect the other way; inactive means flat fitted curve, though single readings scatter.
Could you please pick one outcome from this set? yes (1) for active, no (0) for inactive

Examples with answers:
CCOP(=S)(OCC)Oc1cc(C)nc(C(C)C)n1    no (0)
NCCc1cc(O)c(O)cc1O    no (0)
CCCN1CCC[C@@H]2Cc3[nH]ncc3C[C@H]21    no (0)
O=P1(NCCCl)OCCCN1CCCl (stereo not drawn)    no (0)
CC(=O)[C@H]1CC[C@H]2[C@@H]3CC[C@H]4C[C@](C)(O)CC[C@]4(C)[C@H]3CC[C@]12C    no (0)
Oc1ccc(Cl)cc1Cc1ccccc1    no (0)

For CC(C)(N)Cc1ccc(Cl)cc1 , what call appears in the results of this test?
no (0)

For c1ccc2c(c1)OCC(C1=NCCN1)O2 (stereo not drawn) , what call appears in the results of this test?
yes (1)

For CC1NCCOC1c1ccccc1 (stereo not drawn) , what call appears in the results of this test?
no (0)

For O=C1NCN(c2ccccc2)C12CCN(CC1COc3ccccc3O1)CC2 (stereo not drawn) , what call appears in the results of this test?
no (0)

For C=C1CC[C@@]2(O)[C@H]3Cc4ccc(O)c5c4[C@@]2(CCN3CC2CC2)[C@H]1O5 , what call appears in the results of this test?
no (0)

For FC(F)(F)c1cccc(C2=CCN(CCc3ccc4ccccc4c3)CC2)c1 , what call appears in the results of this test?
no (0)

For Cc1ccc(-c2nc3ccc(C)cn3c2CC(=O)N(C)C)cc1 , what call appears in the results of this test?
no (0)

For N[C@@H](Cc1ccc(Oc2cc(I)c(O)c(I)c2)c(I)c1)C(=O)O , what call appears in the results of this test?
no (0)

For CN1CCN(C(=O)O[C@H]2c3nccnc3C(=O)N2c2ccc(Cl)cn2)CC1 , what call appears in the results of this test?
no (0)

For CC[C@@H](CO)NC(=O)[C@@H]1C=C2c3cccc4[nH]cc(c34)C[C@H]2N(C)C1 , what call appears in the results of this test?
no (0)

For O=[N+]([O-])c1cc([As](=O)(O)O)ccc1O , what call appears in the results of this test?
no (0)

For Oc1cccc2cccnc12 , what call appears in the results of this test?
no (0)

For C#CCN(C)[C@H](C)Cc1ccccc1 , what call appears in the results of this test?
no (0)

For Cc1cc(SCc2sc(-c3ccc(C(F)(F)F)c(F)c3)nc2C)ccc1OCC(=O)O , what call appears in the results of this test?
no (0)

For CC(C)=CC1C(C(=O)OCc2cccc(Oc3ccccc3)c2)C1(C)C (stereo not drawn) , what call appears in the results of this test?
no (0)

For CC(C)CC(N(C)C)C1(c2ccc(Cl)cc2)CCC1 (stereo not drawn) , what call appears in the results of this test?
no (0)

For CN(C)[C@@H]1C(=O)C(C(N)=O)=C(O)[C@@]2(O)C(=O)C3=C(O)c4c(O)cccc4[C@@](C)(O)[C@H]3C[C@@H]12 , what call appears in the results of this test?
no (0)
